Target: T1, human CD20 antigen (human, UniProt P11836 1-297)
T1 construct: whole, on cells; also called CD20/CHO cells; CD20 on Raji cells
T1 sequence (looked up): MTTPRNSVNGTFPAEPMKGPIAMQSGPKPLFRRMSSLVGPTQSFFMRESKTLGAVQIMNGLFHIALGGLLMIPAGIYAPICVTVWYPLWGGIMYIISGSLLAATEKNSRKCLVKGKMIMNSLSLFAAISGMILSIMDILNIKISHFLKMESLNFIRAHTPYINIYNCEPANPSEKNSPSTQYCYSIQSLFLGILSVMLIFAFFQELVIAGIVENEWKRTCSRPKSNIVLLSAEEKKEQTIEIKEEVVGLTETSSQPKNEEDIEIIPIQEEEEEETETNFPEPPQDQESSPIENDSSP
Test: CD20/CHO cell-ELISA, antibody at 32 ng/ml
Observed property: A492 (A492)
Kindly provide the numeric value in A492 only, without the unit symbol.

Problem: State, in one line, measured A492 of chimeric anti-CD20 monoclonal antibody c1K0924 (antibody, V domains shown, Murine variable regions fused to human immunoglobulin H chain and L chain (kappa) constant regions of vector pNOW-Ab) VH: QVQLQQPGAELVKPGASVKMSCKASGYTFTSYNIHWVKQTPGQGLEWIGAIYPGNGDTSYNQKFKGKATLTSDKSSSTAYMQLSSLTSEDSAVYYCARMSTMITGFDYWGQGTTLTVSS VL: QIVLSQSPAILSASPGEKVTMTCRASSSVSYMHWYQQRPGSSPKPWIYATSNLASGVPARFSGSGSGTSYYFTISRVEAEDAATYYCQQWNSNPPTHGGGTKLEIK
Result: 0.724

Problem: State, in one line, measured A492 of chimeric anti-CD20 monoclonal antibody c1K1791 (antibody, V domains shown, Murine variable regions fused to human immunoglobulin H chain and L chain (kappa) constant regions of vector pNOW-Ab) VH: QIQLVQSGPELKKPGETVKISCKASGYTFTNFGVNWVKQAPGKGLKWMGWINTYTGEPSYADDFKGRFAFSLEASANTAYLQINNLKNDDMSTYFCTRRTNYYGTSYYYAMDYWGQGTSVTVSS VL: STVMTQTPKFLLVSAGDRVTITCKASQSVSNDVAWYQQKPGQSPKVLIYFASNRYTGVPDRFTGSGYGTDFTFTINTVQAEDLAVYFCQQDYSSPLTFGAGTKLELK
Result: 1.46

Problem: State, in one line, measured A492 of chimeric anti-CD20 monoclonal antibody c1K1736 (antibody, V domains shown, Murine variable regions fused to human immunoglobulin H chain and L chain (kappa) constant regions of vector pNOW-Ab) VH: QVQLQQPGAELVKPGASVKMSCKASGYTFTTYNLHWVKQTPGQGLEWIGGIYPGNGDTSYNQKFKVKATLTADKSSNTAYMQLSSLTSEDSAVYYCARWIYYGNYEGTLDYWGQGTSVTVSS VL: QIVLSQSPAILSSSPGEKVTMTCRASSSVSYMLWYQQKPGSSPEPWIYATSNLASGVPARFSGGGSGTSYSLTISRVEAEDAATYYCQQWTFNPPTFGGGTKLEIK
Result: 1.55

Problem: State, in one line, measured A492 of chimeric anti-CD20 monoclonal antibody c1K1402 (antibody, V domains shown, Murine variable regions fused to human immunoglobulin H chain and L chain (kappa) constant regions of vector pNOW-Ab) VH: QVQLQQPGAELVKPGASVKMSCKASGFTFTSYNMHWVKQTPGQGLEWIGGIYPGNGDTSYNQKFKGKATLTADKSSSTAYMQLSSLTSEDSAVYYCARFYYYGSMGAMDYWGQGTSVTVSS VL: QIVLSQSPAILSASPGEKVTMTCRASSSVSYMHWYQQKPGSSPKPWIYATSNLASGVPARFSGSGSGTSYSLTITRVEAEDAATYYCQQWTFNPPTFGAGTKLELK
Result: 1.62
